experiment: amyloid nucleation score (Sup35N fusion, yeast selection) (log enrichment); library NNK2; higher = more nucleation; inactive = no reads after selection;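 also: zero at mode of non-aggregating sequences after 7 days selection at 30°C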
Provide the recorded amyloid nucleation score for the entries that follow.
Numbers only.

Some entries whose results are on file:
AMSFGCSAWYTSYRDMFCRG = 3.17
RFGVSVTGDTSRCSGCGGAH = 4.01
FCRSVILSVQMLFKYAIYRF = -1.37

[Q] For LSGAPRLILRVNLWDTFDVQ , what is its reported amyloid nucleation score?
[A] 4

====

assay: amyloid nucleation score (Sup35N fusion, yeast selection) (log enrichment); library NNK1; higher = more nucleation; inactive = no reads after selection
Result type: amyloid nucleation score

NFFVDDSDRGQYKFDPFCCG = inactive
VLRRLRSWRKVELENNRGKM = inactive
KMEPGPRAKALGTNRRFLLK = inactive
ICTSSTKGRLCRSCPLASRL = 0.205
NKSVNLEYGRWVNMVPGLM = inactive

Please give amyloid nucleation score, item by item, for the list that follows.
1. SDMFSLNYSFDERTFWKQTS
2. HTESRSSYGYVCPGYNLISF
3. IARLHT
4. DCLSSGFLDTLYVVQVRGSD

[A]
1. inactive
2. 0.2
3. inactive
4. inactive

====

So I've got a bunch of substances here, and I need their amyloid nucleation score values.
assay: amyloid nucleation score (Sup35N fusion, yeast selection) (log enrichment); library NNK2; higher = more nucleation; inactive = no reads after selection
One number for each entry.

In the examples that follow, each entry is paired with its recorded amyloid nucleation score.
FSRYNVCYFRVAKGNARLPF = -0.541
CGYLSNRSDNRCDLLYACFR = 0.571
LGITITARAIIE = -0.898
KEVCEKTMFMCSWVK = -0.809

List reported amyloid nucleation score for each of these substances:
1. SGNGTVRSEYTRYCCLKGEM
2. QMISLYAKQGVFPFGLSCSC
3. AIKESRCDIVIRRKWSSLKT

[A]
0.822
2.02
-0.02

====

assay: amyloid nucleation score (Sup35N fusion, yeast selection) (log enrichment); library NNK1; higher = more nucleation; inactive = no reads after selection
Result type: amyloid nucleation score
One number for each entry.

Answered cases to consult:
HHAFFDIPRVRGEYECFAGI = 0.192
DVGCLCNNMHMILILLNYRV = 0.446
ARVNVWAVGWSENNSNLKI = 0.916

Attention now turns to another entry.
[Q] If you can, please state the reported amyloid nucleation score value of IKWYAY .
[A] 0.952

====

assay: amyloid nucleation score (Sup35N fusion, yeast selection) (log enrichment); library NNK2; higher = more nucleation; inactive = no reads after selection
Result type: amyloid nucleation score
Give bare numbers.

Worked examples, 5 substances total:
VYYLCVWF = -1.18
MWVDQMVFKRPGYCRSGMYL = 4.78
TIFMAYTWLNYTVAFLSNVR = -1.01
SCVLRP = 0.064
IYINYHREA = 3.54

List the reported amyloid nucleation score of each substance below.
1. CRVCRNWIWGTLSSGVTSRL
2. IVLLINRYMILMGEPNHA

[A]
-0.61
0.17

Please look at the items below and tell me amyloid nucleation score for each one, in order.
1. GYLVRM
2. FYHRGMMWMYKWGMARYRVC
3. SHHHSQTRKIDPSTDFSQSS
4. GLNCTIV
5. CYYFLFNS
6. DLVMVSVSADVHSSNS
7. KLYLVWPTCGDGCSFGLRAT

[A]
-0.186
0.044
-0.047
1.67
2.31
0.163
-0.194

Here are 7 substances. What values of amyloid nucleation score were reported for them?
1. WLVRLVIGGFTQSGMWLTEI
2. MIDWGVIV
3. TTRSNEKIVFHGWTSVINRH
4. VSLINFFVNL
5. DWCPTCIWRICSHVTQSWSS
6. RSENSILHVLHRFVA
7. GTFQSYHDTPEECSFRGKSV

[A]
1.06
-0.149
-0.696
8.42
6.33
-0.559
-0.114

[Q] Request the reported amyloid nucleation score associated with TFLWKFMLNVTTFFIFPKPV
[A] -1.77
